# binding signal annotations
# TGT: OsWRKY34 (Oryza sativa, UniProt Q0JBA9 1-250)
# Sequence (Q0JBA9 entry or part of it): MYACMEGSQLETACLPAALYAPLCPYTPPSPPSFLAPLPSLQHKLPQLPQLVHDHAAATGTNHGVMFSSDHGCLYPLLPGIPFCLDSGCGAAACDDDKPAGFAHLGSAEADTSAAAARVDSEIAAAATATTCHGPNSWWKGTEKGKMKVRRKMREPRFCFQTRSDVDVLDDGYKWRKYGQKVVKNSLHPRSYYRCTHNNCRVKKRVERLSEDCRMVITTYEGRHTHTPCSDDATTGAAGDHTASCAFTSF
# PROTOCOL: protein-binding microarray (RPBM); PBS, 2% BSA, 51.3 ng/ul salmon testes DNA, 50 uM zinc acetate, 200 nM TF, 25 C, 1 h; high values mean tight binding
# ASSAY CONDITIONS: protein: recombinant; tags: N-terminal polyhistidine and DsRed monomer fusion (pET32a); label: CyDye5-dUTP incorporated in the synthesized complementary strand; 3' TTTTT single-stranded linker to array surface; dsDNA, one strand shown
The full ranking holds about 68,000 sequences; the median of “fluorescence intensity (a.u.)” is about 9,100, and the highest 2% start at about 16,000. What follows is part of a selection rich in the highest values, with near analogues and random picks from the rest.

CONSTRUCT SEQUENCE: CATGTTAGATGTTTTTTTTCTTGTTACTCTTTTTTATTTTCGGAGTCACCTAGTGCAG
binding signal: 13300 fluorescence intensity (a.u.)

CONSTRUCT SEQUENCE: CTTTCTTTATTTCAAAAGTATGATACCGTTGACTTTTCACCGGAGTCACCTAGTGCAG
binding signal: 24900 fluorescence intensity (a.u.)

CONSTRUCT SEQUENCE: TTCCTTTTTTTACGTGGCAACAGTTAGGGGTGGGCATTCGCGGAGTCACCTAGTGCAG
binding signal: 18400 fluorescence intensity (a.u.)

CONSTRUCT SEQUENCE: ATACTCCCTCCGTTTCAAAATGTTTGACATCGTTGACTTTCGGAGTCACCTAGTGCAG
binding signal: 9980 fluorescence intensity (a.u.)

CONSTRUCT SEQUENCE: CTGGTTGGTAGGTACTTGCTTGATTAGATTGGGTTTGGTTCGGAGTCACCTAGTGCAG
binding signal: 11500 fluorescence intensity (a.u.)

CONSTRUCT SEQUENCE: CGTATTTTAATATATGACGCCCGCCGTTGACTTTTTGTCTCGGAGTCACCTAGTGCAG
binding signal: 27800 fluorescence intensity (a.u.)

CONSTRUCT SEQUENCE: GAGACGTTGTATATCTGGTTTTGTGGTTTGGGGATGTTTTCGGAGTCACCTAGTGCAG
binding signal: 20100 fluorescence intensity (a.u.)

CONSTRUCT SEQUENCE: AAACCCACCCACCCAGCGCTTCTTCTTTCCTTTCTTTATTCGGAGTCACCTAGTGCAG
binding signal: 12900 fluorescence intensity (a.u.)

CONSTRUCT SEQUENCE: CGTATCTGCTCTGTTTTTCATCTCCTGTCATTTGTCTAAACGGAGTCACCTAGTGCAG
binding signal: 18500 fluorescence intensity (a.u.)
